Recorded unmodified E6AP remaining at 30 min, E6AP autoubiquitination for the following binders
- TARGET: full-length human E6AP (C-terminal TEV-6xHis-Avi) (human, UniProt Q05086 1-875, biotin on the Avi tag (BirA biotin-protein ligase) in the SPR experiments)
- Sequence (Q05086 whole entry): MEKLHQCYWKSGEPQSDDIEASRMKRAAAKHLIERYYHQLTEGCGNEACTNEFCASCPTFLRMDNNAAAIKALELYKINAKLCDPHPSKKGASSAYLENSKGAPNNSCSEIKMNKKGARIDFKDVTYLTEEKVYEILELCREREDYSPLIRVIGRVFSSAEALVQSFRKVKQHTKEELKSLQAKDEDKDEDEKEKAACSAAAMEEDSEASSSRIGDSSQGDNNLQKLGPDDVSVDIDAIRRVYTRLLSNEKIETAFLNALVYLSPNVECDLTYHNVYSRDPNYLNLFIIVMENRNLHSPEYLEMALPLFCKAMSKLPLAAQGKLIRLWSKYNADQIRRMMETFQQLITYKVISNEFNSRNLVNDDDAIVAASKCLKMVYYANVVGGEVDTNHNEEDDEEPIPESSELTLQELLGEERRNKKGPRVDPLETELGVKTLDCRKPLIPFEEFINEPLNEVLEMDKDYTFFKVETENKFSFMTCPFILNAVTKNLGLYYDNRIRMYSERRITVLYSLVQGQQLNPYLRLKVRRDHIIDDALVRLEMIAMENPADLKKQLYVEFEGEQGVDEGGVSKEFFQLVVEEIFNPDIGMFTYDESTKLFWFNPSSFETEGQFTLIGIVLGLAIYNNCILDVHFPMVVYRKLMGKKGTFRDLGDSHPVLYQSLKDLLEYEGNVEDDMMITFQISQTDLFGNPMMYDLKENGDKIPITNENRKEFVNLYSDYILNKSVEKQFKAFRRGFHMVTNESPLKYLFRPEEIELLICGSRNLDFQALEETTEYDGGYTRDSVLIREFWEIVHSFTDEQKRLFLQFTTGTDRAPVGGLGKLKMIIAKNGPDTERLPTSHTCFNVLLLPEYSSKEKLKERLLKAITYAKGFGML
- TEST PROTOCOL: cell-based or functional assay
Kindly provide the numeric value in % only, without the unit symbol.

The cases that follow already have their unmodified E6AP remaining at 30 min, E6AP autoubiquitination on record.
>>> value_measured("MBP-16E6(4C4S) S89A (natural protein, Mutant of m2; source: E. coli BL21(DE3), purified (MBPTrap, SEC); not shown: MBP, N-terminal, kept) MHQKRTAMFQDPQERPRKLPQLCTELQTTIHDIILECVYCKQQLLRREVYDFAFRDLCIVYRDGNPYAVCDKCLKFYSKISEYRHYSYALYGTTLEQQYNKPLSDLLIRCINCQKPLSPEEKQRHLDKKQRFHNIRGRWTGRCMSCSRSSRTRRETQL")
33.1
>>> value_measured("MBP-16E6(4C4S) Y77A (natural protein, Mutant of m2; source: E. coli BL21(DE3), purified (MBPTrap, SEC); not shown: MBP, N-terminal, kept) MHQKRTAMFQDPQERPRKLPQLCTELQTTIHDIILECVYCKQQLLRREVYDFAFRDLCIVYRDGNPYAVCDKCLKFASKISEYRHYSYSLYGTTLEQQYNKPLSDLLIRCINCQKPLSPEEKQRHLDKKQRFHNIRGRWTGRCMSCSRSSRTRRETQL")
21.6
>>> value_measured("MBP-16E6(4C4S) F76A (natural protein, Mutant of m2; source: E. coli BL21(DE3), purified (MBPTrap, SEC); not shown: MBP, N-terminal, kept) MHQKRTAMFQDPQERPRKLPQLCTELQTTIHDIILECVYCKQQLLRREVYDFAFRDLCIVYRDGNPYAVCDKCLKAYSKISEYRHYSYSLYGTTLEQQYNKPLSDLLIRCINCQKPLSPEEKQRHLDKKQRFHNIRGRWTGRCMSCSRSSRTRRETQL")
82

// recorded unmodified E6AP remaining at 30 min, E6AP autoubiquitination for MBP-16E6(4C4S) Y86A (natural protein, Mutant of m2; source: E. coli BL21(DE3), purified (MBPTrap, SEC); not shown: MBP, N-terminal, kept) MHQKRTAMFQDPQERPRKLPQLCTELQTTIHDIILECVYCKQQLLRREVYDFAFRDLCIVYRDGNPYAVCDKCLKFYSKISEYRHASYSLYGTTLEQQYNKPLSDLLIRCINCQKPLSPEEKQRHLDKKQRFHNIRGRWTGRCMSCSRSSRTRRETQL : 56.5

// recorded unmodified E6AP remaining at 30 min, E6AP autoubiquitination for MBP-16E6(4C4S) Y88A (natural protein, Mutant of m2; source: E. coli BL21(DE3), purified (MBPTrap, SEC); not shown: MBP, N-terminal, kept) MHQKRTAMFQDPQERPRKLPQLCTELQTTIHDIILECVYCKQQLLRREVYDFAFRDLCIVYRDGNPYAVCDKCLKFYSKISEYRHYSASLYGTTLEQQYNKPLSDLLIRCINCQKPLSPEEKQRHLDKKQRFHNIRGRWTGRCMSCSRSSRTRRETQL : 21.2
